Test: self-splicing fitness, log relative to wild type (ln ratio); higher = more splicing; Tetrahymena group I intron in knt gene, E. coli kanamycin selection, DiMSum; sequences stand for … in CUCUCU…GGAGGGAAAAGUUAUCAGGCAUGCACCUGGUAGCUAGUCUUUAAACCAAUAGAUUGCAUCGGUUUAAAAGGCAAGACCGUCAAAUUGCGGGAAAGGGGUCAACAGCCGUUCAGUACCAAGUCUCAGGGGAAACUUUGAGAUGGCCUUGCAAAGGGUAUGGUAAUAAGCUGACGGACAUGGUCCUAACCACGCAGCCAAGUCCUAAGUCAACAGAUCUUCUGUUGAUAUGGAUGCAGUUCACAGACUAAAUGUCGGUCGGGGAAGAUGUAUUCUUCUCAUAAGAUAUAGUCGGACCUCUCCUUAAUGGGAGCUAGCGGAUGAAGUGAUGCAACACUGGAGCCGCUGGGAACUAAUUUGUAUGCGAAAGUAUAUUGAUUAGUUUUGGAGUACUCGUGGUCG;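 also: selection with 25 µg/mL kanamycin versus none on LB agar overnight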
Settings: 37 °C
endpoint.label: self-splicing fitness (ln)

Request: Please give the measured self-splicing fitness (ln) for this sequence: "UCCUAGCAAUAUUACGACUU"
Response: -2.74

Request: Please give the measured self-splicing fitness (ln) for this sequence: "UCGAAGCAAUAUUACGACUC"
Response: 0.412

Request: Please give the measured self-splicing fitness (ln) for this sequence: "AGUGAGCAAUAUUACGAACA"
Response: -0.734

Request: Please give the measured self-splicing fitness (ln) for this sequence: "UCCGAGCAAUAUUACGUGAG"
Response: -2.43

Request: Please give the measured self-splicing fitness (ln) for this sequence: "CUCGAGCAAUAUUACGGACA"
Response: -1.35

Request: Please give the measured self-splicing fitness (ln) for this sequence: "GAAAAGCAAUAUUACGUAUC"
Response: -1.48

Request: Please give the measured self-splicing fitness (ln) for this sequence: "ACUGAGCAAUAUUACGCGGG"
Response: -2.03

Request: Please give the measured self-splicing fitness (ln) for this sequence: "UAGCAGCAAUAUUACGCACU"
Response: 0.238

Request: Please give the measured self-splicing fitness (ln) for this sequence: "UUCCAGCAAUAUUACGCUGC"
Response: -2.09

---

Give self-splicing fitness (ln) for every item shown.
Experiment: self-splicing fitness, log relative to wild type (ln ratio); higher = more splicing; Tetrahymena group I intron in knt gene, E. coli kanamycin selection, DiMSum; sequences stand for … in CUCUCU…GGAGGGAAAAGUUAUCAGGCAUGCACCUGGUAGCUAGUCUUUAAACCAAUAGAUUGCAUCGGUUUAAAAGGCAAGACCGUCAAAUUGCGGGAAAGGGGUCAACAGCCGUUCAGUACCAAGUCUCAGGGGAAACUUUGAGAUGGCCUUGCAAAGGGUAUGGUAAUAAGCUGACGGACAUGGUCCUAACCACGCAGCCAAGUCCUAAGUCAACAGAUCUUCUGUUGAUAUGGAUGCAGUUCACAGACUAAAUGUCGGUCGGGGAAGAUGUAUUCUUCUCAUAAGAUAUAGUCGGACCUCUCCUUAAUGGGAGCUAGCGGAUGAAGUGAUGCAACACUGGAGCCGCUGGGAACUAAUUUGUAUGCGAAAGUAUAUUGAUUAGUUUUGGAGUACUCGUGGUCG
Details: 37 °C
Number only, no unit.

Request: Please give the measured self-splicing fitness (ln) for this sequence: "ACGAAGCAAUAUUACGUGAC"
Response: -1.12

Request: Please give the measured self-splicing fitness (ln) for this sequence: "AUGAAGCAAUAUUACGAACU"
Response: 0.606

Request: Please give the measured self-splicing fitness (ln) for this sequence: "AGACAGCAAUAUUACGCGUG"
Response: -0.597

Request: Please give the measured self-splicing fitness (ln) for this sequence: "CAUUAGCAAUAUUACGCCCG"
Response: 0.579

Request: Please give the measured self-splicing fitness (ln) for this sequence: "UUAGAGCAAUAUUACGCACG"
Response: -0.183

Request: Please give the measured self-splicing fitness (ln) for this sequence: "CCGGAGCAAUAUUACGUACU"
Response: -3.36

Request: Please give the measured self-splicing fitness (ln) for this sequence: "CCGGAGCAAUAUUACGAUGG"
Response: -3

Request: Please give the measured self-splicing fitness (ln) for this sequence: "CUGGAGCAAUAUUACGAUAU"
Response: -2.54

Request: Please give the measured self-splicing fitness (ln) for this sequence: "CCAAAGCAAUAUUACGGUAU"
Response: -2.08

Request: Please give the measured self-splicing fitness (ln) for this sequence: "CCACAGCAAUAUUACGGCAA"
Response: -2.74

Request: Please give the measured self-splicing fitness (ln) for this sequence: "AGCAAGCAAUAUUACGCAGU"
Response: -1.28

Request: Please give the measured self-splicing fitness (ln) for this sequence: "AACCAGCAAUAUUACGGCUC"
Response: -0.82

Request: Please give the measured self-splicing fitness (ln) for this sequence: "CAAAAGCAAUAUUACGUGGG"
Response: -2.6

Request: Please give the measured self-splicing fitness (ln) for this sequence: "AGUUAGCAAUAUUACGAUAA"
Response: -0.658

Request: Please give the measured self-splicing fitness (ln) for this sequence: "UAAUAGCAAUAUUACGAACC"
Response: -2.27

Request: Please give the measured self-splicing fitness (ln) for this sequence: "ACGAAGCAAUAUUACGCUAA"
Response: -0.582

Request: Please give the measured self-splicing fitness (ln) for this sequence: "GCUCAGCAAUAUUACGCCUC"
Response: 0.48

Request: Please give the measured self-splicing fitness (ln) for this sequence: "UCGGAGCAAUAUUACGGGAA"
Response: -2.08

Request: Please give the measured self-splicing fitness (ln) for this sequence: "CGUGAGCAAUAUUACGAGUU"
Response: -3.72

Request: Please give the measured self-splicing fitness (ln) for this sequence: "UCACAGCAAUAUUACGGGUU"
Response: -2.33

Request: Please give the measured self-splicing fitness (ln) for this sequence: "AUUAAGCAAUAUUACGUUCU"
Response: 0.034

---

Test: self-splicing fitness, log relative to wild type (ln ratio); higher = more splicing; Tetrahymena group I intron in knt gene, E. coli kanamycin selection, DiMSum; sequences stand for … in CUCUCU…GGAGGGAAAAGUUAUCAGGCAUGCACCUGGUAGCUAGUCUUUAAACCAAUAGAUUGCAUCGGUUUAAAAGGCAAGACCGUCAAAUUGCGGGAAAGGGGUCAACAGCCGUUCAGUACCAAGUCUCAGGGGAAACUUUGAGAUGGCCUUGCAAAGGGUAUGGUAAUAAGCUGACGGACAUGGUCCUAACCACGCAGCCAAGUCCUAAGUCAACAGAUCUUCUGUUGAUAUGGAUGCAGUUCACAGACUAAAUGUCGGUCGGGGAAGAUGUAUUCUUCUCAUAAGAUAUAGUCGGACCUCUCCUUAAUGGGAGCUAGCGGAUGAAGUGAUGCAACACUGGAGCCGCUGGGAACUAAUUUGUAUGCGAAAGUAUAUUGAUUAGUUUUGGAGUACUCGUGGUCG
Settings: 37 °C
endpoint.label: self-splicing fitness (ln)
Number only, no unit.

Request: Please give the measured self-splicing fitness (ln) for this sequence: "CGUUAGCAAUAUUACGAUCA"
Response: 0.245

Request: Please give the measured self-splicing fitness (ln) for this sequence: "CGCGAGCAAUAUUACGCGAA"
Response: -2.65

Request: Please give the measured self-splicing fitness (ln) for this sequence: "CAUGAGCAAUAUUACGGUAC"
Response: -2.32

Request: Please give the measured self-splicing fitness (ln) for this sequence: "AUGCAGCAAUAUUACGAAUC"
Response: -2.87

Request: Please give the measured self-splicing fitness (ln) for this sequence: "AGGUAGCAAUAUUACGUACA"
Response: -0.257

Request: Please give the measured self-splicing fitness (ln) for this sequence: "GCAAAGCAAUAUUACGAGAU"
Response: -2.19

Request: Please give the measured self-splicing fitness (ln) for this sequence: "CAUAAGCAAUAUUACGUACG"
Response: 0.239

Request: Please give the measured self-splicing fitness (ln) for this sequence: "GCAGAGCAAUAUUACGUUCA"
Response: -0.713

Request: Please give the measured self-splicing fitness (ln) for this sequence: "UAGAAGCAAUAUUACGUGCU"
Response: -2.42

Request: Please give the measured self-splicing fitness (ln) for this sequence: "GCUGAGCAAUAUUACGGUAU"
Response: -2.41

Request: Please give the measured self-splicing fitness (ln) for this sequence: "GGGUAGCAAUAUUACGAGCG"
Response: -0.426

Request: Please give the measured self-splicing fitness (ln) for this sequence: "CAAUAGCAAUAUUACGUAAC"
Response: -3.27

Request: Please give the measured self-splicing fitness (ln) for this sequence: "UGUGAGCAAUAUUACGAACC"
Response: -0.336

Request: Please give the measured self-splicing fitness (ln) for this sequence: "AGGAAGCAAUAUUACGCAGG"
Response: -2.21

Request: Please give the measured self-splicing fitness (ln) for this sequence: "CGUGAGCAAUAUUACGUAUA"
Response: -1.55

Request: Please give the measured self-splicing fitness (ln) for this sequence: "CCGGAGCAAUAUUACGCUUG"
Response: -2.22

Request: Please give the measured self-splicing fitness (ln) for this sequence: "AGUCAGCAAUAUUACGGCUA"
Response: -0.512

Request: Please give the measured self-splicing fitness (ln) for this sequence: "UCACAGCAAUAUUACGACUU"
Response: -1.65

Request: Please give the measured self-splicing fitness (ln) for this sequence: "CCUCAGCAAUAUUACGGCAC"
Response: -2

Request: Please give the measured self-splicing fitness (ln) for this sequence: "UGACAGCAAUAUUACGCUGA"
Response: -2.08

Request: Please give the measured self-splicing fitness (ln) for this sequence: "UUAAAGCAAUAUUACGAAGA"
Response: -0.63

Request: Please give the measured self-splicing fitness (ln) for this sequence: "UACUAGCAAUAUUACGGGUU"
Response: -1.78

Request: Please give the measured self-splicing fitness (ln) for this sequence: "ACAAAGCAAUAUUACGUUUU"
Response: -2.95

Request: Please give the measured self-splicing fitness (ln) for this sequence: "GUCAAGCAAUAUUACGCUUU"
Response: -1.73

Request: Please give the measured self-splicing fitness (ln) for this sequence: "GUAGAGCAAUAUUACGUGGG"
Response: -2.08

Request: Please give the measured self-splicing fitness (ln) for this sequence: "UGAGAGCAAUAUUACGGUCU"
Response: -2.37

Request: Please give the measured self-splicing fitness (ln) for this sequence: "CUCAAGCAAUAUUACGAGAU"
Response: -0.936

Request: Please give the measured self-splicing fitness (ln) for this sequence: "CGACAGCAAUAUUACGAGAG"
Response: -1.95
